The origin of these recorded values is ChEMBL document CHEMBL1153722.

- Species: Rattus norvegicus
- Method description: Inhibition of rat recombinant Rab geranylgeranyltransferase at 100 uM in presence of canine Rab7 and rat REP1 NBD-FPP based continuous fluorimetric assay
Label Y when inhibition is at or above 90%; anything below gets N.

Worked examples, 3 compounds total:
CCCCCCCCCCCCCC(=O)N[C@@H](Cc1ccc(O)cc1)C(=O)N[C@@H](Cc1ccc(O)cc1)C(=O)N[C@@H](Cc1ccc(O)cc1)C(=O)NC1CCCCC1 = Y
NCCOC(=O)[C@H](Cc1ccc(O)cc1)NC(=O)CCNC(=O)[C@H](Cc1c[nH]cn1)NC(=O)OCc1ccccc1 = Y
CC(C)[C@H](NC(=O)[C@@H](Cc1ccccc1)NC(=O)c1ccc(-c2ccccc2)cc1)C(=O)N[C@H](C)C(=O)N1CCC[C@H]1C(N)=O = N

Now for a further compound.
Query: Identify whether the reported inhibition of the following compound is 90% or greater: CCCCCCCCCCC(=O)N[C@@H](Cc1c[nH]cn1)C(=O)N[C@@H](Cc1ccccc1)C(=O)N[C@@H](Cc1ccc(O)cc1)C(=O)NCC(O)CO (stereo partly specified)
Result: N
